- measured-target: T1, α5β1 integrin on cells (PMA-activated K562 cells; U87MG cells) (human, UniProt P08648 42-1049; P05556 21-798)
- T1 construct: Endogenous integrin of human cell lines; also called cellular α5β1 integrin; cell surface α5β1 integrin receptors
- T1 sequence (P08648 42-1049 limits assumed, chain 1 of 2): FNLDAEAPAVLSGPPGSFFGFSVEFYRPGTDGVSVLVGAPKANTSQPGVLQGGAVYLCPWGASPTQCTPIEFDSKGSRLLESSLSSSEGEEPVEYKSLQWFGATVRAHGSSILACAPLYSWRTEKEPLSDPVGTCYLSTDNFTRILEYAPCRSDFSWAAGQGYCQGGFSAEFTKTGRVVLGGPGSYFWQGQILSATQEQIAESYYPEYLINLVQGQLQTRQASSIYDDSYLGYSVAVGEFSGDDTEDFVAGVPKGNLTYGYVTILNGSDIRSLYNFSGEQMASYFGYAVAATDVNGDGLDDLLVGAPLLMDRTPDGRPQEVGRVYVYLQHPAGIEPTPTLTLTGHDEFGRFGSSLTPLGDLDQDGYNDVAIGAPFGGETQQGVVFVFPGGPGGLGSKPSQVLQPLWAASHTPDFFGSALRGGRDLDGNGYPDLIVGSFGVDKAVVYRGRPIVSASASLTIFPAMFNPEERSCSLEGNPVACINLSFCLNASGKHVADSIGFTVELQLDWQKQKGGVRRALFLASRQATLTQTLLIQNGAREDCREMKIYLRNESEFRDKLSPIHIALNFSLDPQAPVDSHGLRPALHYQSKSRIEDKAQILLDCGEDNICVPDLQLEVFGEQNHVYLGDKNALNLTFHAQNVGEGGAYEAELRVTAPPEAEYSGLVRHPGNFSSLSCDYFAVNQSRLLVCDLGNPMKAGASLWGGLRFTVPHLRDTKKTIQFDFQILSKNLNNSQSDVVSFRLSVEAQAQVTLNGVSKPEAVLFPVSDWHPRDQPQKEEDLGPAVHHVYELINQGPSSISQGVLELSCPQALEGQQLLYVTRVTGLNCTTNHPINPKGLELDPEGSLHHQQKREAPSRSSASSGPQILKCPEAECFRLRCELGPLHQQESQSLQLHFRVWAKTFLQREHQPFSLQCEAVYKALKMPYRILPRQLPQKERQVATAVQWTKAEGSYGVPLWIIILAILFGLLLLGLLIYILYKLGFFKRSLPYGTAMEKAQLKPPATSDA
- T1 sequence (P05556 21-798 limits assumed, chain 2 of 2): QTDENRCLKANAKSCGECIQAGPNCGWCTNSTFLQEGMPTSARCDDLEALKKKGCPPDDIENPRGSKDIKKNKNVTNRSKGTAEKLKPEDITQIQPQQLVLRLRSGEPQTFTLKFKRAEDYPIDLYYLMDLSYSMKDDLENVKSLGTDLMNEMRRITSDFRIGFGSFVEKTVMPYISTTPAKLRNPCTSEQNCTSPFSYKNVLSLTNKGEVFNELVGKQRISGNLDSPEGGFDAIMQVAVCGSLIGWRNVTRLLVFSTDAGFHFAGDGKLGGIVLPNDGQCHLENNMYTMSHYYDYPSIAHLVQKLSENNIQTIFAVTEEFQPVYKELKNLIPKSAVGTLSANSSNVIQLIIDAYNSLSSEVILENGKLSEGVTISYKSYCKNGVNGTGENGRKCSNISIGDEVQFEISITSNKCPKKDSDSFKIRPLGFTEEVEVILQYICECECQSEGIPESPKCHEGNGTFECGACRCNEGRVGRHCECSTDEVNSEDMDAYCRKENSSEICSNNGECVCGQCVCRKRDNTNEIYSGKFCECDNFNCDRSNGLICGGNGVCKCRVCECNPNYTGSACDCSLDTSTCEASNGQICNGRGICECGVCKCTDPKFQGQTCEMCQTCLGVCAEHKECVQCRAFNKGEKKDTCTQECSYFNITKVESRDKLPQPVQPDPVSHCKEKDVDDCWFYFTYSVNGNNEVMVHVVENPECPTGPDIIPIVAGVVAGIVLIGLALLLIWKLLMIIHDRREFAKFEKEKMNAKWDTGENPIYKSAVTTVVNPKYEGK
- method-summary: flow cytometry on PMA-activated K562 cells, hybridoma supernatant
- Method: Four weeks later cells from spleens and draining lymph nodes were fused to create hybridomas. […] In short, hybridoma supernatants were incubated with the activated K562 cells for 20 minutes, washed, then incubated with a fluorescent conjugated detecting antibody for 20 minutes, washed, resuspended in 7-Aminoactinomycin D, and Mean Fluorescence Intensity (MFI) measured on a Guava cytometer (Luminex Corporation, Austin, TX 78727).
Mark True only for MFI values smaller than 2000; exact matches and larger values are False.

A2-6C10 (antibody, V domains shown, mouse hybridoma) VH: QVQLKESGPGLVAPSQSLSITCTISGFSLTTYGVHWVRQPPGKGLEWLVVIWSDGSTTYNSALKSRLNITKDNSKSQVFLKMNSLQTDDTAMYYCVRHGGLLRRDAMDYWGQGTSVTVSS VL: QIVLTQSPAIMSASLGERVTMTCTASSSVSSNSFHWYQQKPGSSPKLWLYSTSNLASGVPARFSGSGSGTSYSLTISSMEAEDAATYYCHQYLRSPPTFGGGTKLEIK = False

Kindly review the next binder as well.
Q: Dear reviewer, please state whether A2-8H11 (antibody, V domains shown, mouse hybridoma) VH: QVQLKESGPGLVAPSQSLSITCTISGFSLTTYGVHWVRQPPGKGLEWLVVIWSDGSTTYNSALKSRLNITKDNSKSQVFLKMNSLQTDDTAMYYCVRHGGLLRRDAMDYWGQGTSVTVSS VL: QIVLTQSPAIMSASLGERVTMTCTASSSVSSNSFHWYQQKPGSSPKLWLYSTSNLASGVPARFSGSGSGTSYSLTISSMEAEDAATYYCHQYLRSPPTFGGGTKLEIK has MFI strictly beneath 2000.
A: False

Each recorded value in this set is attributed to patent US20240279345A1.
